# measuredOn: T1, human CDH6 on tumor cells (OVCAR3 cells, PA-1 cells) (human, UniProt P55285 54-790)
# T1 sequence: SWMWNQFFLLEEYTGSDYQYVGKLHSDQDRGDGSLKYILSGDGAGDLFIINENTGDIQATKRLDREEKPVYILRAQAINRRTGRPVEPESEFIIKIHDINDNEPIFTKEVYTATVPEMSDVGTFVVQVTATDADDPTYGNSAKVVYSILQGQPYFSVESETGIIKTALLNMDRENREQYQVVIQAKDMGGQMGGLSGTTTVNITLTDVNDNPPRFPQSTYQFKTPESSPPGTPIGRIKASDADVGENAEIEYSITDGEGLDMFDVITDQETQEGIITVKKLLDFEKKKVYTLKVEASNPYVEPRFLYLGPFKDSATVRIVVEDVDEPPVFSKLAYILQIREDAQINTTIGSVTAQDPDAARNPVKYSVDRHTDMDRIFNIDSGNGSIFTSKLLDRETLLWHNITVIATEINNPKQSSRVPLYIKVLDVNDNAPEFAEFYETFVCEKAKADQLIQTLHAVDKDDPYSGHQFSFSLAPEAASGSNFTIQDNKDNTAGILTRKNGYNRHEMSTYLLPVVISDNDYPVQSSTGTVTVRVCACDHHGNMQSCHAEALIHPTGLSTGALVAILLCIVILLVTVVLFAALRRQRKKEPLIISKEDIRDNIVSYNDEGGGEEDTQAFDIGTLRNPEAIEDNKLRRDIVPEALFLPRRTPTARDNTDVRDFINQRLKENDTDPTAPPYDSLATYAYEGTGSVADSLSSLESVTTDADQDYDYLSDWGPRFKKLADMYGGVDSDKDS
# testSummary: FACS, OVCAR3 cells
parameter: Max MFI (MFI)
Numbers only, in MFI.

- CHI-CDH6-10 (antibody, human IgG1, kappa, V domains shown, also called chimeric antibody of murine CDH6-10) VH: QVQLQQPGAELVKPGTSVKMSCKASGYTFTSDWIAWVKQRPGQGLEWIGDIYPGSGRTHNNEKFNFKATLTVDTSSNTAYMQLSSLTSEDSAVYFCARPMLGRFDYWGQGTTLTVSS VL: DIVLTQSPASLAVSLGQRATISCRASESVSIHGTHLMHWYQQKPGQPPKLLIYAASNLESGVPARFSGSGSETDFTLNIHPVEEEDAATYFCQQSFEDPFTFGSGTKLEIKR: 13900
- CHI-CDH6-6 (antibody, human IgG1, kappa, V domains shown, also called CHI-hCDH6-6; chimeric antibody of murine CDH6-6) VH: EVQLQQSGPELVKPGDSVKMSCKASGYTFTDYYMAWVRQSHRKSLEWIGYIFPNSGGTDYSQKFKGKATLTVDKSSSTVYMELHSLTSEDSAVYYCARELGADYGDYYAMDHWGQGTSVSVSS VL: DIQMTQSPASLSASVGETVTITCRASENIDSYLAWYQQKQGKSPQLLVYSATLLADGVPSRFSGSGSGTQYSLKINSLKSEDVARYYCQHYYRTPPTFGSGTKLEIKR: 14800
- CHI-CDH6-11 (antibody, human IgG1, kappa, V domains shown, also called chimeric antibody of murine CDH6-11) VH: QIQLQQSGPELVKPGASVRISCKASGYTFTDYYITWVKLRPGQGLEWIGWIYPGSVNIKYNEKFKGKATLTVDTSSSTAYMQLNSLTSEDSAVYFCARGGYSWFPYWGQGTLVTVSA VL: NIVMTQSPKSMSMSVGERVTLSCKASENVHTYVSWYQQKPEQSPKLLFYGASTRNTGVPDRFTGSGSATDFTLTISSVQAEDLADYYCGQSYSYPYTFGSGTKLEIKR: 14500

We now examine a further binder.
Look up Max MFI for this binder: CHI-CDH6-1 (antibody, human IgG1, kappa, V domains shown, also called CHI-hCDH6-1; CH1-CDH6-1) VH: QVQLQQPGAELVRPGSSVKLSCKASGYTFTNYWMHWVKQRPIEGLEWIGDIDPSHSETHYTQKFKDKATLTVDKSSSTAYMQLSSLTSEDSAVYYCARGDLGRFDYWGQGTTLTVSS VL: DIVLTQSPASLAVSLGQRATISCRASESVSIHGTHLMHWYQQKSGQPPKLLIYAASNLESGVPARFSGSGSETDFTFNIHPVEEEDAATYFCQQSFEDPWTFGGGTKLEIKR
14700
